Catalogue of activation (light induction) values
test: dose response, V. cholerae BH1651, dry powder (AID 651847); settings: V. cholerae BH1651 luxOD47E, luciferase light induction, 6 h; at 80 µM (top of the series) unless noted
Records with an inconclusive call do not appear. Calls of active or inactive are those of the source. The rule behind the calls is not given here.

Worked examples, 2 compounds total:
COMPOUND STRUCTURE STRING	activation (light induction)
O=C(Cc1ccccc1C(F)(F)F)NC1CCCC1	0% (inactive)
CCn1nnnc1NCc1cccc(N2CCCC2)c1	-33.3% (inactive)

Recorded activation (light induction) (compound CCCn1nnnc1NCc1ccc(N2CCCC2)cc1 ): -25% (inactive)
